# Displacem. (%) of [125I]-238D2 at 0.5 μM per record follows
Target: CXCR4 (Homo sapiens, UniProt P61073)
Sequence (P61073 whole entry): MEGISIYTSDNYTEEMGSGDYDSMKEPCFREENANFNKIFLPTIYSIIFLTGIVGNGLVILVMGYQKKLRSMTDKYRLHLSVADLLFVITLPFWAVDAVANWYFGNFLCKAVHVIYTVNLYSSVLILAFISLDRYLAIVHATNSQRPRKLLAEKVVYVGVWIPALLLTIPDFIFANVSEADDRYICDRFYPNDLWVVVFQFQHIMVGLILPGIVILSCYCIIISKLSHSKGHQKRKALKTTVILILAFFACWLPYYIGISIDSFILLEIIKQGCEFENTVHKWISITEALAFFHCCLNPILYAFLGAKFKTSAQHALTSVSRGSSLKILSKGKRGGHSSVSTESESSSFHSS
Assay: [125I]-238D2 competition binding on membranes from HEK293T cells transiently expressing CXCR4
Settings: at highest test concentration of 0.5 μM (footnote a: no significant displacement; b: maximum not reached)
experimental-readout: Displacem. (%) of [125I]-238D2 at 0.5 μM

- molecule: "237A6: Nanobody (VHH) raised against human CXCR4, SEQ ID NO: 248 (protein, Nanobody, Nanobody constructs or fragments thereof) VHH: EVQLVESGGGLVQAGGSLRLSCAASGSIFSLNAMGWYRQAPGKQRELVAGITSSTSTYYADSVKGRFTISRDNTKNTVYLQMNSLKPEDTAVYYCNVDCPDYYSDYECPLEDRGQGTQVTVSS"
  experimental-readout: "Displacem. (%) of [125I]-238D2 at 0.5 μM"
  observed: "0^a %"
- molecule: "237D1: Nanobody (VHH) raised against human CXCR4, SEQ ID NO: 249 (protein, Nanobody, Nanobody constructs or fragments thereof) VHH: EVQLVESGGGLAQPGGPLRLTCEASGVIYSVNDMGWYRQAPGKQRELVAVITSGGGTNYVDSVKGRFTISGDNRKKTVYLQMNSLKPEDTAVYYCSIYYSSGISTLRSWGQGTQVTVSS"
  experimental-readout: "Displacem. (%) of [125I]-238D2 at 0.5 μM"
  observed: "0^a %"
